Each recorded value in this set is attributed to patent US6569878B1.

- EXPERIMENTAL TARGET: human CDK1 (cdc2) and cyclin B (Homo sapiens)
- Sequence (P06493 whole entry): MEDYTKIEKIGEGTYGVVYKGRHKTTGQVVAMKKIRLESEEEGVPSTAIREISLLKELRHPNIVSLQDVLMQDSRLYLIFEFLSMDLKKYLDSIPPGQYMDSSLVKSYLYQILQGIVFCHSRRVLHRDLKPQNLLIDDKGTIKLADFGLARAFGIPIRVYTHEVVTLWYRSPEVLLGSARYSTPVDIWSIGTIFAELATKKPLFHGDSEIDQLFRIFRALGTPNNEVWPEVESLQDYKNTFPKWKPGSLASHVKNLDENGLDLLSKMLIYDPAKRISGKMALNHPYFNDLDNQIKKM
- Sequence (P14635 whole entry partner): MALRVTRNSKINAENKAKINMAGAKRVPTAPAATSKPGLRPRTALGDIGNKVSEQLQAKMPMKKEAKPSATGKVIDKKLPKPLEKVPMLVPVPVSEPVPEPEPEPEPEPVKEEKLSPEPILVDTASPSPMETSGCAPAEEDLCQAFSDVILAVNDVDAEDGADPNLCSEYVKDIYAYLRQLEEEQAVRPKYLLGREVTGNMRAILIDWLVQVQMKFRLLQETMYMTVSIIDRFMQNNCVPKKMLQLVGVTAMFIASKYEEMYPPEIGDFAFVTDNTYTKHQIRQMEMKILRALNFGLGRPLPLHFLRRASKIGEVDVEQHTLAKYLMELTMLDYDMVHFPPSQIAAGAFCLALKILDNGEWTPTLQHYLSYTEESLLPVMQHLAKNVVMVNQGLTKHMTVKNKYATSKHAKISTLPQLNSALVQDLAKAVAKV
- TEST SUMMARY: Inhibition of CDK1(cdc2)/cyclin B histone H1 kinase activity
- RECORDED CONDITIONS: read-out: Ki CDK 1/B
Structures can show the parent of a compound that is named as a salt.
REPORTED METRIC: Ki (nM)

INSERT INTO results (compound, reported_metric, unit_text, test_value) VALUES
  ('Nc1nc(Nc2ccc(C(=O)O)cc2)sc1C(=O)c1ccccc1[N+](=O)[O-]', 'Ki', 'nM', 30),
  ('Nc1ccc(Cl)c(C(=O)c2sc(Nc3ccc(N4CCNCC4)cc3)nc2N)c1Cl [H(2), Trihydrochloride]', 'Ki', 'nM', 361),
  ('NC(=O)c1ccc(Nc2nc(N)c(C(=O)c3c(F)cccc3F)s2)cc1', 'Ki', 'nM', 17),
  ('CN1CCN(c2ccc(Nc3nc(N)c(C(=O)c4c(F)cccc4F)s3)cc2)CC1=O', 'Ki', 'nM', 97),
  ('Nc1nc(Nc2ccc(N3CCNCC3)cc2)sc1C(=O)c1c(Cl)cc(Cl)cc1Cl', 'Ki', 'nM', 732);

---

- System: Saos-2
- TEST SUMMARY: Inhibition of cell growth, MTT assay, Saos-2
- Assay type: cell-based
- RECORDED CONDITIONS: Homo sapiens; Saos-2, MTT assay
REPORTED METRIC: IC50 (µM)

INSERT INTO results (compound, unit_text, test_value) VALUES
  ('Cc1ccc(C(=O)c2sc(Nc3cccnc3)nc2N)c(C)c1 [C(21)]', 'µM', 13),
  ('CN(C)S(=O)(=O)c1ccc(Nc2nc(N)c(C(=O)c3c(F)cccc3F)s2)cc1 [C(109)]', 'µM', 1.5),
  ('Nc1nc(Nc2ccc(N3CCSCC3)cc2)sc1C(=O)c1c(F)cccc1F [C(119)]', 'µM', 7),
  ('CC(=O)Nc1ccc(Cl)c(C(=O)c2sc(Nc3ccc(N4CCN(C)CC4)cc3)nc2N)c1Cl [C(86)]', 'µM', 12),
  ('Cc1ccsc1C(=O)c1sc(Nc2ccc(N3CCN(C)CC3)cc2)nc1N [C(87)]', 'µM', 2),
  ('CC(=O)c1ccc(Nc2nc(N)c(C(=O)c3ccccc3[N+](=O)[O-])s2)cc1 [C(24)]', 'µM', 1.4);

---

This section presents compounds with their documented pKi values.
- EXPERIMENTAL TARGET: CDK2/cyclin A (Homo sapiens)
- Construct: made in house; host or cells: CDK2: insect cells (baculovirus); cyclin A: E. coli, then limited proteolysis
- TEST SUMMARY: Inhibition of CDK2/cyclin A retinoblastoma kinase activity
- Assay type: biochemical
- RECORDED CONDITIONS: read-out: Ki CDK 2/A
pKi: −log10 of the molar value.
REPORTED METRIC: pKi

INSERT INTO measurements (compound, test_value) VALUES
  ('Cc1ccc(C)c(C(=O)c2sc(Nc3ccc4nc[nH]c4c3)nc2N)c1C', 6.51),
  ('Cc1cccc(Br)c1C(=O)c1sc(Nc2ccc3nc[nH]c3c2)nc1N', 6.24),
  ('Nc1nc(Nc2ccc(-c3ncc[nH]3)cc2)sc1C(=O)c1c(Cl)cc(C(F)(F)F)cc1Cl', 6.74),
  ('Nc1nc(Nc2ccc3nc[nH]c3c2)sc1C(=O)c1c(Cl)ccc([N+](=O)[O-])c1Cl', 6.49),
  ('Nc1nc(Nc2ccc(N3CCNCC3)cc2)sc1C(=O)c1c(Cl)cccc1Cl', 6.39),
  ('Nc1cccc(C(=O)c2sc(Nc3ccccc3)nc2N)c1', 6.05),
  ('Cc1ccsc1C(=O)c1sc(Nc2ccc(N3CCN(C)CC3)cc2)nc1N', 6.22),
  ('CC(=O)Nc1ccc(Cl)c(C(=O)c2sc(Nc3ccc4nc[nH]c4c3)nc2N)c1Cl', 6.33),
  ('CN1CCN(c2ccc(Nc3nc(N)c(C(=O)c4c(F)cccc4F)s3)cc2)CC1', 6.66),
  ('COC(=O)c1sc(Nc2ccc3nc[nH]c3c2)nc1N', 5.39),
  ('CN1CCN(c2ccc(Nc3nc(N)c(C(=O)c4c(Cl)cncc4Cl)s3)cc2)CC1', 5.95),
  ('Cc1ccsc1C(=O)c1sc(Nc2ccc(C(=O)C3COC(=O)[C@H]3N)cc2)nc1N (stereo partly shown)', 6.99),
  ('Nc1nc(Nc2ccc(N3CCOCC3)cc2)sc1C(=O)c1c(Cl)cccc1Cl', 6.31),
  ('Nc1nc(Nc2ccc(N3CCN(c4ccccn4)CC3)cc2)sc1C(=O)c1c(F)cccc1F', 6.44),
  ('Nc1nc(Nc2ccc(S(N)(=O)=O)cc2)sc1C(=O)c1ccc2c(c1)CCC(=O)N2', 7.48),
  ('Cc1c(C(=O)c2sc(Nc3ccc(S(N)(=O)=O)cc3)nc2N)ncn1C', 6.29),
  ('Nc1nc(Nc2ccccc2)sc1C(=O)c1ccccc1', 6.34),
  ('Cc1cc([N+](=O)[O-])sc1C(=O)c1sc(Nc2ccc(N3CCN(C)CC3)cc2)nc1N', 5.98),
  ('CCOC(=O)c1ccc(Nc2nc(N)c(C(=O)c3ccccc3[N+](=O)[O-])s2)cc1', 6.16),
  ('Cc1cc(C(=O)c2sc(Nc3ccc(N4CCN(C)CC4)cc3)nc2N)c(C)s1', 6.11),
  ('Cc1cc(N)sc1C(=O)c1sc(Nc2ccc(S(N)(=O)=O)cc2)nc1N', 6.63),
  ('Cc1ccsc1C(=O)c1sc(Nc2ccc(-n3ccnc3)cc2)nc1N', 6.68),
  ('Nc1nc(Nc2ccc(N3CCNC(=O)C3)cc2)sc1C(=O)c1c(F)cccc1F', 7.10),
  ('Cc1cccc(Br)c1C(=O)c1sc(Nc2ccc(N3CCOCC3)cc2)nc1N', 5.98),
  ('Cc1ccc(C(=O)c2sc(Nc3cccnc3)nc2N)c(C)c1', 6.32);

---

- Tested on: U2-OS
- TEST SUMMARY: Inhibition of cell growth, MTT assay, U2-OS
- Assay type: cell-based
- RECORDED CONDITIONS: Homo sapiens, U2OS
pIC50: −log10 of the molar value.
REPORTED METRIC: pIC50

INSERT INTO assay_data (molecule, experimental_target, value_comparator, test_value) VALUES
  ('CC(=O)N1CCN(c2ccc(Nc3nc(N)c(C(=O)c4c(F)cccc4F)s3)cc2)CC1', 'U2-OS', '=', 5.52),
  ('Nc1nc(Nc2ccc(C(=O)C3COC(=O)[C@H]3N)cc2)sc1C(=O)c1c(Cl)cncc1Cl (some centres unmarked)', 'U2-OS', '<', 4.60),
  ('Cc1ccsc1C(=O)c1sc(Nc2ccc(S(N)(=O)=O)cc2)nc1N', 'U2-OS', '=', 6.00),
  ('Cc1ccc(C(=O)c2sc(Nc3cccnc3)nc2N)c(C)c1', 'U2-OS', '=', 4.66),
  ('CN1CCN(c2ccc(Nc3nc(N)c(C(=O)c4c(F)cccc4F)s3)cc2)CC1=O', 'U2-OS', '=', 5.62);
